Assign inhibition at 50 ppm to each entry below.
test system: Aspergillus niger; test: Inhibition of hypha growth on malt extract agar, Aspergillus niger; settings: read-out: Controlling effect (growth inhibition rate) ASN
Provide the reading as a plain figure in %.

Exercise: Request body: readout inhibition at 50 ppm, system Aspergillus niger, query COc1nsc(S(=O)(=O)C(F)F)c1C#N . Return the value.
Solution: 100

Exercise: Request body: readout inhibition at 50 ppm, system Aspergillus niger, query CCS(=O)(=O)c1snc(OCC=CCl)c1C#N . Return the value.
Solution: 100

Exercise: Request body: readout inhibition at 50 ppm, system Aspergillus niger, query CC(C)Oc1nsc(S(=O)(=O)C(F)F)c1C#N . Return the value.
Solution: 100
